Value source: BindingDB's records for doi:10.1016/j.bmcl.2019.05.048

# targetOrTestSystem: Hepatic lipase (Mouse)
# testSummary: Inhibition of hepatic lipase in endothelial lipase knock-out mouse plasma using D31-POPC-HDL as substrate incubated for 2 hrs by LC/MS analysis
observable: IC50 (µM)
Write down the numeric answer in µM and omit the unit.

input: # value lookup — system Hepatic lipase (Mouse), readout IC50, item COCCS(=O)(=O)C(C(=O)NCC(=O)NC1CC1)c1nc2ccc(-c3ccc(F)nc3)cc2s1 (stereo unspecified)
output: 26
